# protocol text: Spectrophotometric (UV/vis) titration of boronic acids 2 against the sodium salt of sulfenic acid 1, incl. reversibility with NaOH
# measurement conditions: read-out: Averaged Kd from spectrophotometric titrations
quantity name: Kd

## Task Entry OB1OCc2ccccc21 has what Kd?
## Result 158 µM

###

Record form. Attribute: Activity. Fill in for each entry.
# target or system: iron-based NHase from Rhodococcus erythropolis AJ270 (Rhodococcus erythropolis, UniProt P13448)
# Construct: purchased Prozomix Limited
# protocol text: Enzymatic inhibition of nitrile hydratase (NCTB conversion, 412 nm)
# Format: biochemical
# measurement conditions: [B]/[Dimedone] = 2.5 mM; nmol thiolate product per minute per mg freeze-dried NHase powder
One number for each entry, in nmol/min/mg.

OB(O)c1ccccc1 [Compound 2g, phenylboronic acid] ... 0.931
OB1OCc2ccccc21 [Compound 2A] ... 0.502
CC1(C)CC(=O)CC(=O)C1 [Dimedone, 5,5-dimethyl-1,3-cyclohexanedione, reference compound] ... 0

Read the next record carefully.
## Task Entry OB(O)c1cccc(Br)c1 [Compound 2d, 3-Bromobenzene-boronic acid] has what Activity?
## Result 0.782

###

# target or system: iron-based NHase from Rhodococcus erythropolis AJ270 (Rhodococcus erythropolis, UniProt P13448)
# Construct: purchased Prozomix Limited
# protocol text: Enzymatic inhibition of nitrile hydratase (NCTB conversion, 412 nm)
# Assay type: biochemical
# measurement conditions: [B]/[Dimedone] = 2.5 mM; NHase without additive = 100%
Record form. Attribute: Rate relative to NHase. Fill in for each entry.
Numbers only, in %.

Here are 3 compounds together with their reported answers.
OB(O)c1cccc(Br)c1 [Compound 2d, 3-Bromobenzene-boronic acid] ... 69
CC1(C)CC(=O)CC(=O)C1 [Dimedone, 5,5-dimethyl-1,3-cyclohexanedione, reference compound] ... 0
OB(O)c1ccccc1 [Compound 2g, phenylboronic acid] ... 83

Read the next record carefully.
## Task Entry OB1OCc2ccccc21 [Compound 2A] has what Rate relative to NHase?
## Result 45

###

Record form. Attribute: Average rate (abs/min). Fill in for each entry.
# target or system: iron-based NHase from Rhodococcus erythropolis AJ270 (Rhodococcus erythropolis)
# Construct: purchased Prozomix Limited
# Sequence (P13448 1-207): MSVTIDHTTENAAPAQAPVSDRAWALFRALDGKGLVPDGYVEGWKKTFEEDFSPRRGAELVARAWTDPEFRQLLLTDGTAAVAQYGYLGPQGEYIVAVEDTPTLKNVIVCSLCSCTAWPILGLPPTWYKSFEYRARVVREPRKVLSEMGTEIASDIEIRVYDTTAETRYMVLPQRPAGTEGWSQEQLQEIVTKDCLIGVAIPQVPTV
# Sequence (P13449 1-212 partner): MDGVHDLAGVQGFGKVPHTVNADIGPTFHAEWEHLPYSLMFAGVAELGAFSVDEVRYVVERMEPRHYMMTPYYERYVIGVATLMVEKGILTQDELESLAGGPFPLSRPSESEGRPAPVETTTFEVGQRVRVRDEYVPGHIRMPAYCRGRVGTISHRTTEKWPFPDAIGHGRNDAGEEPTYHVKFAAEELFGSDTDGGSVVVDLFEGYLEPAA
# protocol text: Enzymatic inhibition of nitrile hydratase (NCTB conversion, 412 nm)
# Type: biochemical
# measurement conditions: [B]/[Dimedone] = 0.5 mM, 1 mM NCTB, 23° C.
Give bare numbers, in abs/min.

Here are 3 compounds together with their reported answers.
OB(O)c1cccc(Br)c1 ... 0.0039
CC1(C)CC(=O)CC(=O)C1 [Dimedone, 5,5-dimethyl-1,3-cyclohexanedione, reference compound] ... 0.00274
OB(O)c1ccccc1 ... 0.0043

Read the next record carefully.
## Task Entry OB1OCc2ccccc21 has what Average rate (abs/min)?
## Result 0.0039
